- protocol notes: Standard protocol for determination of kcat and KM (continuous spectrophotometric assay, Acetyl CoA hydrolysis at 235 nm)
- Format: biochemical
- condition notes: purified protein; about 23° C.; 20 mM HEPES pH 6.8, 10% ethylene glycol, 0.2 mM acetyl CoA
Would you please tag the item y when its Kcat is 0.8 s⁻¹ or above, and n when it is below?

Illustrative cases are given below, each with its answer.
>  <molecule>
SEQ ID NO: 454: GAT polypeptide (protein, 10_4F2, GAT polypeptide) MLEVKPINAEDTYELRHRILRPNQPIEACMFESDLLRGAFHLGGFYRGKLISIASFHQAEHSELQGQKQYQLRGMATLEGYREQKAGSSLIRHAEEILRKRGADMLWCNARTSASGYYKKLGFSEQGEIFETPPVGPHILMYKRLT

>  <assigned label>
y

$$$$
>  <molecule>
SEQ ID NO: 361: GAT polypeptide (protein, 3B_2E5, GAT polypeptide) MIEVKPINAEDTYEIRHRILRPNQPLEACMYETDLLGGTFHLGGYYRGKLISIASFHQAEHSELEGQKQYQLRGMATLEGYREQKAGSTLIRHAEELLRKKGADLLWCNARTSASGYYEKLGFSKQGEVYDIPPIGPHILMYKKLT

>  <assigned label>
n

$$$$
>  <molecule>
SEQ ID NO: 322: GAT polypeptide (protein, 14_7G1, GAT polypeptide) MIEVKPINAEDTYEIRHRILRPNQPLEACKYETDLLRGAFHLGGYYRGKLISIASFNQAEHPELEGQKQYQLRGMATLEEYREQKAGSTLIRHAEALLRKKGADLLWCNARTSASGYYKKLGFSEQGEVYDTPPVGPHILMYKKLT

>  <assigned label>
y

$$$$

Reported Kcat reaches at least 0.8 s⁻¹ for SEQ ID NO: 376: GAT polypeptide (protein, 4B_2H8, GAT polypeptide) MIEAKPINAEDTYEIRHRILRPNQPLEACKYETDLLGGTFHLGGYYRGKLISIASFHQAEHSELEGQKQYQLRGMATLEGYREQKAGSTLIRHAEELLRKKGADLLWCNARTSASGYYKKLGFSEQGEVYDIPPIGPHILMYKKLT ?
n

Reported Kcat reaches at least 0.8 s⁻¹ for SEQ ID NO: 480: GAT polypeptide (protein, 1_4C5, GAT polypeptide) MIEVKPINAEDTYELRHKILRPNQPIEACMYESDLLRGSFHLGGFYRGKLISIASFHKAEHSDLEGQNQYQLRGMATLEGYREQKAGSTLIRHAEEILRKRGADMLWCNARTSASGYYKRLGFSEHGEIFDTPPVGPHILMYKRLT ?
y

Taken from patent US8008547B2.
